Target: Carbonic anhydrase 12 (Homo sapiens)
Assay: Activation of transmembrane human carbonic anhydrase-12 incubated for 15 mins prior to testing by stopped-flow CO2 hydrase assay
Observation Type: KA (µM)

# Chemical Structure, Reading Unit, Readout Value
records = [
    ("COC(=O)[C@H](Cc1nc[nH]c1Cl)NC(=O)CCN", "µM", 21.5),
    ("CC(C)(C)OC(=O)NCCc1nc[nH]c1Br", "µM", 52.8),
    ("COC(=O)[C@H](Cc1nc(Cl)[nH]c1Cl)NC(=O)CCNC(=O)OC(C)(C)C", "µM", 9.7),
    ("COC(=O)[C@@H](N)Cc1nc[nH]c1Br", "µM", 1.01),
    ("COC(=O)[C@H](Cc1c[nH]cn1)NC(=O)CCN", "µM", 0.96),
    ("CC(C)(C)OC(=O)NCCc1nc[nH]c1Cl", "µM", 18.8),
    ("CC(C)(C)OC(=O)NCCc1nc(Cl)[nH]c1Cl", "µM", 40.2),
    ("COC(=O)[C@@H](N)Cc1c[nH]cn1", "µM", 0.91),
    ("COC(=O)[C@H](Cc1nc(Br)[nH]c1Br)NC(=O)OC(C)(C)C", "µM", 1.62),
    ("COC(=O)[C@H](Cc1nc(Br)[nH]c1Br)NC(=O)CCN", "µM", 1.84),
    ("CC(C)(C)OC(=O)NCCc1nc[nH]c1I", "µM", 44.3),
    ("COC(=O)[C@H](Cc1nc(Cl)[nH]c1Cl)NC(=O)CCN", "µM", 0.072),
    ("COC(=O)[C@H](Cc1nc(I)[nH]c1I)NC(=O)CCN", "µM", 10.5),
    ("NCCc1nc(Cl)[nH]c1Cl", "µM", 5.7),
    ("COC(=O)[C@H](Cc1nc[nH]c1Br)NC(=O)CCNC(=O)OC(C)(C)C", "µM", 24.9),
    ("CC(C)(C)OC(=O)NCCc1nc(I)[nH]c1I", "µM", 35),
    ("COC(=O)[C@H](Cc1nc(Br)[nH]c1Br)NC(=O)CCNC(=O)OC(C)(C)C", "µM", 31.6),
    ("NCCc1nc(I)[nH]c1I", "µM", 34.6),
    ("NCCc1nc[nH]c1Br", "µM", 3.2),
    ("NCCc1nc[nH]c1Cl", "µM", 12.1),
]
